Tested on: Raf-1^gof intestinal tumors
Experiment: Luciferase screen of FDA-approved (NCI) drugs in 96-well plates, flies with Raf-1^gof intestinal tumors; also: test concentration or dose not given here
Type: in vivo, Drosophila
Conditions: average of Day 3 and Day 6 fold
Threshold check on Avg (3 + 6): strictly below 0.8 fold is met; on or above 0.8 fold is not met.

{"columns": ["compound", "target-of-assay", "class-name"],
 "data": [
  ["C/C(=C\\c1csc(C)n1)[C@@H]1C[C@@H]2O[C@]2(C)CCC[C@H](C)[C@H](O)[C@@H](C)C(=O)C(C)(C)[C@@H](O)CC(=O)N1 [Ixabepilone]", "Raf-1^gof intestinal tumors", "met"],
  ["CC(C)(C#N)c1cc(Cn2cncn2)cc(C(C)(C)C#N)c1 [Anastrozole]", "Raf-1^gof intestinal tumors", "not met"],
  ["NCC(=O)CCC(=O)O [Aminolevulinic acid]", "Raf-1^gof intestinal tumors", "not met"],
  ["O=NN(CCCl)C(=O)NCCCl [Carmustine]", "Raf-1^gof intestinal tumors", "met"]
]}

###

Tested on: Raf-1^gof intestinal tumors
Experiment: Luciferase screen of FDA-approved (NCI) drugs in 96-well plates, flies with Raf-1^gof intestinal tumors; also: test concentration or dose not given here
Type: in vivo, Drosophila
Details: average of Day 3 and Day 6 fold
Where a name gives a salt, the structure may show the parent alone. Numbered stars: 1 amine (or outer) side, 2 acyl side, 3 side chain; on linkers, the order of the positions; unused ones are H or OH. Bridge positions count the residues as written; N and C are the ends. Square brackets hold non-standard residues; d marks the D form. Peptide text beside a SMILES is read from it. I, II: the chains in the order shown. Actinocin(9to1) = Cc1c2oc3c(C)ccc(C(=O)[*:1])c3nc-2c(C(=O)[*:2])c(N)c1=O; NMeV = CN[C@H](C(=O)O)C(C)C; Sar = CNCC(=O)O
Grouping key: Avg (3 + 6). Bins: band 1: < 0.6 fold; band 2: ≥ 0.6 fold and < 1 fold; band 3: ≥ 1 fold

{"columns": ["compound", "class-name"],
 "data": [
  ["Nc1cccc2c1CN(C1CCC(=O)NC1=O)C2=O (stereo not shown) [Lenalidomide]", "band 2"],
  ["CC/C(=C(\\c1ccccc1)c1ccc(OCCN(C)C)cc1)c1ccccc1 [Tamoxifen citrate]", "band 2"],
  ["O=c1[nH]c(=O)n([C@H]2C[C@H](O)[C@@H](CO)O2)cc1F", "band 1"],
  ["Cn1nnc2c(C(N)=O)ncn2c1=O [Temozolomide]", "band 3"],
  ["COc1c2occc2cc2ccc(=O)oc12", "band 2"],
  ["Nc1ccn([C@@H]2O[C@H](CO)[C@@H](O)C2(F)F)c(=O)n1 [Gemcitabine HCl]", "band 1"],
  ["Nc1ncn([C@@H]2O[C@H](CO)[C@@H](O)[C@H]2O)c(=O)n1", "band 3"],
  ["Nc1nc(F)nc2c1ncn2[C@@H]1O[C@H](CO)[C@@H](O)[C@@H]1O", "band 3"],
  ["CCCCC(=O)OCC(=O)[C@]1(O)Cc2c(O)c3c(c(O)c2[C@@H](O[C@H]2C[C@H](NC(=O)C(F)(F)F)[C@H](O)[C@H](C)O2)C1)C(=O)c1c(OC)cccc1C3=O", "band 2"],
  ["CN(C)/N=N/c1[nH]cnc1C(N)=O", "band 2"],
  ["CC(C)Cn1cnc2c(N)nc3ccccc3c21", "band 2"],
  ["COc1cccc2c1C(=O)c1c(O)c3c(c(O)c1C2=O)C[C@@](O)(C(=O)CO)C[C@@H]3O[C@H]1C[C@H](N)[C@H](O)[C@H](C)O1 [Doxorubicin HCl]", "band 3"],
  ["O=NN(CCCl)C(=O)NC1CCCCC1", "band 2"],
  ["COc1cccc2c1C(=O)c1c(O)c3c(c(O)c1C2=O)C[C@@](O)(C(C)=O)C[C@@H]3O[C@H]1C[C@H](N)[C@H](O)[C@H](C)O1 [Daunorubicin HCl]", "band 1"],
  ["COc1cc([C@@H]2c3cc4c(cc3[C@@H](O[C@@H]3O[C@@H]5CO[C@@H](c6cccs6)O[C@H]5[C@H](O)[C@H]3O)[C@H]3COC(=O)[C@H]23)OCO4)cc(OC)c1O [Teniposide]", "band 2"],
  ["CS(=O)(=O)OCCCCOS(C)(=O)=O", "band 2"],
  ["Nc1nc2[nH]cc(CCc3ccc(C(=O)N[C@@H](CCC(=O)O)C(=O)O)cc3)c2c(=O)[nH]1", "band 1"],
  ["Nc1ncn([C@H]2C[C@H](O)[C@@H](CO)O2)c(=O)n1", "band 1"],
  ["CNNCc1ccc(C(=O)NC(C)C)cc1", "band 3"],
  ["OC[C@H]1O[C@@H](n2cnc3c2NC=NC[C@H]3O)C[C@@H]1O", "band 2"],
  ["Cc1ccc(-c2cc(C(F)(F)F)nn2-c2ccc(S(N)(=O)=O)cc2)cc1", "band 2"],
  ["CC[C@]1(O)C[C@@H]2CN(CCc3c([nH]c4ccccc34)[C@@](C(=O)OC)(c3cc4c(cc3OC)N(C)[C@H]3[C@@](O)(C(=O)OC)[C@H](OC(C)=O)[C@]5(CC)C=CCN6CC[C@]43[C@@H]65)C2)C1 [Vinblastine sulfate]", "band 1"],
  ["Nc1nc2nc[nH]c2c(=S)[nH]1", "band 3"],
  ["Cc1c2oc3c(C)ccc(C(=O)N[C@@H]4C(=O)N[C@H](C(C)C)C(=O)N5CCC[C@H]5C(=O)N(C)CC(=O)N(C)[C@@H](C(C)C)C(=O)O[C@@H]4C)c3nc-2c(C(=O)N[C@@H]2C(=O)N[C@H](C(C)C)C(=O)N3CCC[C@H]3C(=O)N(C)CC(=O)N(C)[C@@H](C(C)C)C(=O)O[C@@H]2C)c(N)c1=O [Dactinomycin] (I: T[dV]P[Sar][NMeV] / II: T[dV]P[Sar][NMeV]; ester I:1-I:C, II:1-II:C; linker I:N-II:N via Actinocin(9to1))", "band 1"]
]}

###

System: Raf-1^gof intestinal tumors
Conditions: screen of 480 ICCB compounds in vials; compounds fed to flies with one-day old Raf-1^gof tumors, assessed three days later; esg-Gal4 luciferase
As shown below, each of these compounds has a reported Log2 (fold) (luciferase activity, log2 of the fold difference relative to DMSO controls) value.
property-label: Log2 (fold) (luciferase activity, log2 of the fold difference relative to DMSO controls)

{"columns": ["compound", "observed-value"],
 "data": [
  ["O=C1CCC(N2C(=O)c3ccccc3C2=O)C(=O)N1 (centres unmarked) [Thalidomide]", "−0.252"],
  ["CCCCC/C=C\\C\\C=C/C=C/C=C/[C@@H](SCC(NC(C)=O)C(=O)O)[C@@H](O)CCCC(=O)O (some centres unmarked)", "−0.318"],
  ["CCCCCCCC/C=C\\CCCCCCCCOC[C@H](COP(=O)([O-])OCC[N+](C)(C)C)OC(C)=O", "−0.420"],
  ["CCCCC[C@H](O)/C=C/[C@H]1C=CC(=O)[C@@H]1CCCCCCC(=O)O", "−0.522"],
  ["CCC(C)[C@H](NS(=O)(=O)c1cccc2ccccc12)C(=O)N[C@H](C=O)Cc1c[nH]c2ccccc12 (some centres unmarked)", "−0.554"]
]}

###

Tested on: Raf-1^gof intestinal tumors
Details: screen of 480 ICCB compounds in vials; compounds fed to flies with one-day old Raf-1^gof tumors, assessed three days later; esg-Gal4 luciferase
property-label: Log2 (fold) (luciferase activity, log2 of the fold difference relative to DMSO controls)

{"columns": ["compound", "observed-value"],
 "data": [
  ["CCCCCCCCCCCCC/C=C/[C@@H](O)[C@H](CO)N(C)C", "−0.487"],
  ["Cc1cnc(C(=O)NCCc2ccc(S(=O)(=O)NC(=O)NC3CCCCC3)cc2)cn1 [GLIPIZIDE]", "−0.417"],
  ["NC(N)=NCCNS(=O)(=O)c1cccc2cnccc12", "−0.372"],
  ["CCCC[C@H]1C(=O)O[C@H](C)[C@H](NC(=O)c2cccc(NC=O)c2OC)C(=O)O[C@@H](C)[C@@H]1OC(=O)CC(C)C [2-methoxyantimycin A3]", "−0.873"],
  ["CCCCC/C=C\\C/C=C\\C/C=C\\C/C=C\\CCCC(=O)O[C@H](COCCCCCCCCCCCCCCCC)COP(=O)([O-])OCC[N+](C)(C)C", "−0.439"],
  ["O=c1c(-c2ccc(O)cc2)coc2cc(O)cc(O)c12", "−0.275"],
  ["Cn1cnc2c(NCc3ccccc3)nc(NCCO)nc21", "−0.406"],
  ["CCCCC/C=C\\C/C=C\\C/C=C\\C=C\\[C@@H](O)CCCC(=O)O [5(S)-HETE]", "−0.343"]
]}

###

Tested on: Raf-1^gof intestinal tumors
Assay: Luciferase screen of FDA-approved (NCI) drugs in 96-well plates, flies with Raf-1^gof intestinal tumors; also: test concentration or dose not given here
Type: in vivo, Drosophila
Conditions: average of Day 3 and Day 6 fold
Avg (3 + 6) values by entry

{"columns": ["compound", "target-of-assay", "Avg (3 + 6) [fold]"],
 "data": [
  ["O=C1CCC(N2C(=O)c3ccccc3C2=O)C(=O)N1 (stereo not shown) [Thalidomide]", "Raf-1^gof intestinal tumors", 1.008],
  ["CN(C)c1nc(N(C)C)nc(N(C)C)n1", "Raf-1^gof intestinal tumors", 0.611],
  ["C[C@@H](CN1CC(=O)NC(=O)C1)N1CC(=O)NC(=O)C1", "Raf-1^gof intestinal tumors", 0.599],
  ["CS(=O)(=O)CCNCc1ccc(-c2ccc3ncnc(Nc4ccc(OCc5cccc(F)c5)c(Cl)c4)c3c2)o1", "Raf-1^gof intestinal tumors", 0.976]
]}
